Origin of the recorded values: PubChem BioAssay (NCI)

System: IGROV1 ovarian
ASSAY OVERVIEW: NCI-60 one-dose screen, 48 h (100 = growth as untreated, 0 = no growth, -100 = all killed)
STUDY CONDITIONS: 10 µM unless noted
The panel holds about 83,000 compounds, 20% with a hit somewhere; the sample as a whole holds those more often.
REPORTED ENDPOINT: growth (%)
Reply with just the number (in %).

Form entry - test system: IGROV1 ovarian; read-out: growth; molecule: `S=C(NCc1ccccc1)N1CCC(CCCC2CCN(C(=S)NCc3ccccc3)CC2)CC1`
117

Form entry - test system: IGROV1 ovarian; read-out: growth; molecule: `CC1(C)OC(=O)CC1=O`
107

Form entry - test system: IGROV1 ovarian; read-out: growth; molecule: CC(C)C1CCC(C)C(O)C1 (configuration not stated)
104

Form entry - test system: IGROV1 ovarian; read-out: growth; molecule: CC(c1ccccc1)N1C(=O)CSC1=S (configuration not stated)
-31.6

Form entry - test system: IGROV1 ovarian; read-out: growth; molecule: `CCOc1ccc(NC(=S)N2CCC(CCCC3CCN(C(=S)Nc4ccc(OCC)cc4)CC3)CC2)cc1`
94.5

Form entry - test system: IGROV1 ovarian; read-out: growth; molecule: `CC(C)c1ccc(C(=O)OCCCl)cc1`
109

Form entry - test system: IGROV1 ovarian; read-out: growth; molecule: `S=c1nc(-c2ccccn2)c(-c2ccccn2)n[nH]1`
103

Form entry - test system: IGROV1 ovarian; read-out: growth; molecule: `OCCc1ccc(Cl)cc1`
104

Form entry - test system: IGROV1 ovarian; read-out: growth; molecule: `CCCCCCCCCCCCCCCCCCSC(=N)N`
70.5

Form entry - test system: IGROV1 ovarian; read-out: growth; molecule: `NS(=O)(=O)c1cc(=O)[nH]c(=O)[nH]1`
121

Form entry - test system: IGROV1 ovarian; read-out: growth; molecule: COC1OC(COC(C)=O)C(OC(C)=O)C(OC(C)=O)C1OC(C)=O (configuration not stated)
118

Form entry - test system: IGROV1 ovarian; read-out: growth; molecule: `Cc1ccc(S(=O)(=O)NC(=O)NCCSSCCNC(=O)NS(=O)(=O)c2ccc(C)cc2)cc1`
101

---

System: HT29 colon
ASSAY OVERVIEW: NCI-60 one-dose screen, 48 h (100 = growth as untreated, 0 = no growth, -100 = all killed)
STUDY CONDITIONS: 10 µM unless noted
This is part of a sample that, as a whole, favours compounds with a hit. Of some 83,000 tested, about 20% had one in any assay.
Give growth for every item shown.
Reply with just the number (in %).

Value lookup for growth; key = `CCOc1ccncc1[N+](=O)[O-]`
107

Value lookup for growth; key = `N#CC1(O)CCCCC1`
104

Value lookup for growth; key = `C/C(Cc1ccccc1)=N\O`
101

Value lookup for growth; key = C=CCC(OC(C)=O)c1ccc(C(C)C)cc1 (stereo not drawn)
92.5

Value lookup for growth; key = `ClCc1cccc2c(CCl)cccc12`
71.1

Value lookup for growth; key = NCC(O)C(O)C(O)C(O)CO (stereo not drawn)
95.9

Value lookup for growth; key = `CCCCCCCCCc1ccc(OC(C)=O)cc1`
102

Value lookup for growth; key = `CC1=CC(=Nc2ccc(N(C)C)cc2)C=C(C)C1=O`
98.6
